- System: speedwell (bird's-eye speedwell, Veronica persica)
- EXPERIMENT NOTES: Test C postemergence, plant response rating
- Assay type: in vivo
- RECORDED CONDITIONS: 62 g ai/ha, scale 0 to 100 (0 no effect, 100 complete control)
Reported Speedwell plant response rating values for the following compounds.
ENDPOINT NAME: Speedwell plant response rating

{"MOLECULAR STRING": "O=C(CCCC(F)(F)F)c1c(Cl)cccc1Oc1ncc(Cl)cn1", "TESTED TARGET": "speedwell (bird's-eye speedwell, Veronica persica)", "VALUE REPORTED": 85}
{"MOLECULAR STRING": "O=C(CCC(F)(F)C(F)(F)F)c1c(Br)cccc1Oc1ncc(Cl)cn1", "TESTED TARGET": "speedwell (bird's-eye speedwell, Veronica persica)", "VALUE REPORTED": 90}
{"MOLECULAR STRING": "O=C(CCCC(F)(F)F)c1c(Oc2ncc(Cl)cn2)cccc1C(F)(F)F", "TESTED TARGET": "speedwell (bird's-eye speedwell, Veronica persica)", "VALUE REPORTED": 98}
{"MOLECULAR STRING": "O=C(CCCCC(F)(F)F)c1c(Br)cccc1Oc1ncc(Cl)cn1", "TESTED TARGET": "speedwell (bird's-eye speedwell, Veronica persica)", "VALUE REPORTED": 95}
{"MOLECULAR STRING": "FC(F)(F)CCCCc1c(Br)cccc1Oc1ncc(Cl)cn1", "TESTED TARGET": "speedwell (bird's-eye speedwell, Veronica persica)", "VALUE REPORTED": 100}

Data origin, for the record: patent US11053204B2
